- Test system: ERK8
- Construct: gene MAPK15
- test settings: concentration: 1 μM, replicates: in singlicate; n = 1;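 further: KINOMEscan kinase panel screen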
recorded metric: %Inh

May I ask what %Inh has been recorded for Nc1ncnc2scc(-c3ccc(NC(=O)Cc4cc(F)ccc4F)cc3)c12.O=C(O)C(F)(F)F ? 0%

Reported %Inh for CN(C)CCOc1ccc(-c2cc(-c3ccc(Cl)c(O)c3)c(-c3ccncc3)[nH]2)cc1.Cl.Cl : what is it? 7%

Bench note: what %Inh did Cc1ccc(NC(=O)c2cccc(N3CCCCC3)c2)cc1-c1ccc(C(=O)NCC2CC2)cc1 show? 51%

Return reported %Inh; argument: Cn1cc(-c2cnc(N)c3c(-c4ccc5c(c4)CCN5C(=O)Cc4ccccc4)csc23)cn1 11%

Report %Inh for COc1cccc(-c2nc(-c3ccccc3)[nH]c2-c2ccncc2)c1 please. 0%

# %Inh lookup, item CNc1nccc(-c2ccc3c(N)n[nH]c3c2)n1 28%

Value lookup for %Inh; key = CC(C)c1nc(-c2ccc(F)c(NS(=O)(=O)c3c(F)cccc3F)c2)c(-c2ccnc(Nc3ccc(N4CCOCC4)nc3)n2)s1 38%

Quick one: %Inh for Cc1ccc(C)c(NC(=O)Nc2ccc(C)c(-c3ccc(C(=O)Nc4ccncc4)cc3)c2)c1 ? 0%

====

- Test system: VPS34
- Construct: gene PIK3C3
- test settings: concentration: 1 μM, replicates: in singlicate; n = 1
Would you mind telling me the reported %Inh of each entry?
# output: bare number, implied unit %

Look up %Inh: N#CC1(c2cccc(C(=O)Nc3cccc(Oc4ccc5nc(NC(=O)C6CC6)sc5n4)c3)c2)CC1 0

Sample CSc1ccc(NC2=C(c3ccc(Cl)cc3)C(=O)NC2=O)cc1 — what was its %Inh? 22

Would you mind telling me what %Inh value was observed for Cc1ccc(O)cc1Nc1ccnc2ccc(C(C)(C)C)cc12 ? 51

# %Inh lookup, item Nc1ncc(-c2cn[nH]c2)c2scc(-c3ccc4c(c3)CCN4C(=O)Cc3ccccc3)c12 33

What %Inh value was documented for this compound, Cc1ccc(-c2ccc3occ(-c4ccc(S(C)=O)cc4)c3c2)nn1 (stereo not drawn) ? 61

Could you tell me which %Inh is on file for CC(C)(C)c1ccc(C(=O)Nc2cn3cc(-n4ccnc4)ccc3n2)cc1 ? 39

Dear colleague, I am looking for the recorded %Inh of the following compound: CNc1nccc(-c2ccc3c(N)n[nH]c3c2)n1 15

Which value of %Inh has been reported for Cc1ccc(NC(=O)c2cccc(N3CCCCC3)c2)cc1-c1ccc(C(=O)NCC2CC2)cc1 in the records? 0

Which %Inh is listed for Cc1cc(-c2ccnc(Nc3cccc(C#N)c3)n2)cc(C)c1O ? 70

====

- Tested on: ABL1-nonphosphorylated
- test settings: concentration: 1 μM, replicates: in singlicate; n = 1
I'd be grateful if you could share measured %Inh for these entries.
# number only, unit % dropped from output

Requested field: %Inh. Item: COC(=O)Nc1nc2ccc(Oc3ccc(CC(=O)Nc4cc(C(F)(F)F)ccc4F)cc3)cc2[nH]1 [GW680903] 35

GET /values?readout=%Inh&item= CCOc1nccc(-c2c(-c3ccc(F)cc3)ncn2C2CCNCC2)n1 [SB-249175] 35

Please give the measured %Inh for this molecule: Fc1cc(Cl)ccc1Nc1ccnc2cc(-c3ccc(CN4CCOCC4)o3)ccc12 [GW560109] 99.5

I have this molecule here, Nc1cccc(-c2ccc3c(N)n[nH]c3c2)c1 [GSK2193613] , and I need its recorded %Inh. 34

%Inh lookup needed for c1ccc(Oc2ccc(Nc3ccnc4cc(-c5ccc(CN6CCCCC6)o5)ccc34)cc2)nc1 [GW567143] , thanks. 85

// returns reported %Inh for input CC(C)NCC(Cc1ccccc1)NC(=O)c1cc(Br)c(-c2ccnc3[nH]ccc23)s1.Cl.Cl (centres unmarked) [GSK1383281] 0

State the recorded %Inh for this entry: N#CC1(c2cccc(C(=O)Nc3cccc(Oc4ccc5nc(NC(=O)C6CC6)sc5n4)c3)c2)CC1 100

Param item = CS(=O)(=O)c1cccc(CNc2nc(Nc3ccc4c(c3)CCC(=O)N4)ncc2C(F)(F)F)c1 ; retrieve measured %Inh. 54

Which %Inh is reported for this molecule? O=C(O)C(F)(F)F.O=c1[nH]ccc2nc(N[C@@H]3CCNC3)nc(Nc3cc(Cl)cc(Cl)c3)c12 [GSK2188764] 9

State the recorded %Inh for this entry: COc1ccc(NC(=O)c2ccoc2)cc1-c1ccc(C(=O)NCC2CC2)cc1 [GW810437] 24

Suppose we examine the molecule Cc1ccc(NC(=O)c2ccnc(N3CCCCC3)c2)cc1-c1ccc(C(=O)NCC2CC2)cc1 [GW775610] ; what %Inh value has been reported? 55

Name the recorded %Inh for Cc1nn2c(=O)cc(N3CCO[C@H](C)C3)nc2n1Cc1cccc(Cl)c1Cl [GSK2373693] . 0

For CC(C)(C)c1ccc(C(=O)Nc2cn3cc(-n4ccnc4)ccc3n2)cc1 , what is its reported %Inh? 44

Recorded %Inh for COc1cccc(CC(=O)N2CCc3cc(-c4cn(C)c5ncnc(N)c45)ccc32)c1 [GSK2608899] , please? 57

Form field: reported %Inh of O=C(Nc1n[nH]c2cc(-c3cccs3)ccc12)C1CC1 [SB-731284] 81

For the molecule shown here, COc1ccc(C2=C(Nc3cccc(O)c3)C(=O)NC2=O)cc1 [SB-390766] , give the reported %Inh. 0

Consider the molecule NCCC(NC(=O)c1cc(Br)c(-c2ccnc3[nH]ccc23)s1)c1ccccc1.O=C(O)C(F)(F)F.O=C(O)C(F)(F)F (centres unmarked) [GSK1307810] and give its measured %Inh. 0

====

- System: TYRO3
- test settings: concentration: 1 μM, replicates: in singlicate; n = 1
For each entry below, report its %Inh value.
Output spec: scalar in %, unitless text.

I'm curious: which %Inh was measured for c1ccc(Oc2ccc(Nc3ccnc4cc(-c5ccc(CN6CCCCC6)o5)ccc34)cc2)nc1 tested on TYRO3? 26

Lab request: please report %Inh under test system TYRO3 for COC(=O)Nc1nc2ccc(Oc3ccc(CC(=O)Nc4cc(C(F)(F)F)ccc4F)cc3)cc2[nH]1 0

Any idea what %Inh came out for COC(=O)Nc1nc2cc(Oc3ccc(NC(=O)Nc4cccc(SC)c4)cc3)ccc2[nH]1.Cl on TYRO3? 0

%Inh of CN(c1ccc(F)c(NC(=O)c2cccc(OC(C)(C)C#N)c2Cl)c1)c1ccc2nc(NC(=O)C3CC3)sc2n1 on TYRO3? 14

Notebook: pull reported %Inh for TYRO3, entry COc1ccc(NC(=O)c2ccoc2)cc1-c1ccc(C(=O)NCC2CC2)cc1 12

Kindly state the measured %Inh obtained for CCNC(=O)/C=C/c1n[nH]c2cc(Sc3ccccc3C(=O)NC)ccc12 with TYRO3. 0

Field: %Inh (TYRO3). Entry: Cc1ccc(-c2ccc3occ(-c4ccc(S(C)=O)cc4)c3c2)nn1 (stereo not drawn) 0

Provide the documented %Inh with TYRO3 as the system for CN(c1ccc(NC(=O)N2CCN(CCCN3CCOCC3)CC2)cc1)c1ccnc(Nc2ccc(CS(C)(=O)=O)cc2)n1.Cl 8

Observed %Inh on TYRO3 for COc1cc(Nc2nccc(N3CCC(NS(=O)(=O)c4ccc(NC(C)=O)cc4)CC3)n2)cc(OC)c1OC , please. 76

Param readout= %Inh; system= TYRO3; entry= O=C(O)C(F)(F)F.O=c1[nH]ccc2nc(N[C@@H]3CCNC3)nc(Nc3cc(Cl)cc(Cl)c3)c12 ; returns value. 0

Requested read-out %Inh, target or system TYRO3, entry CNc1nccc(-c2ccc3c(N)n[nH]c3c2)n1 0

Give %Inh (TYRO3) of the following molecule: Cc1ccc(Nc2ccnc(Nc3ccc(C)c(F)c3)n2)cc1O.Cl 29

====

- Test system: TNK2
- test settings: concentration: 1 μM, replicates: in singlicate; n = 1
recorded metric: %Inh (%)
Report the value in % with no unit label.

%Inh lookup needed for Nc1ncnc2scc(-c3ccc(NC(=O)Cc4cc(F)ccc4F)cc3)c12.O=C(O)C(F)(F)F , thanks. 2

What value of measured %Inh is listed for O=C(Nc1c(F)cccc1F)c1cc(C(=O)c2ccccc2F)c[nH]1 ? 8

Requested read-out: %Inh. Entry: COc1cc(Nc2nccc(N3CCC(NS(=O)(=O)c4ccc(NC(C)=O)cc4)CC3)n2)cc(OC)c1OC 76

State the recorded %Inh for this entry: Nc1cccc(-c2ccc3c(N)n[nH]c3c2)c1 13

====

Exercise: for every item that follows, state its recorded %Inh.
- Test system: RSK4(Kin.Dom.1-N-terminal)
- Construct: gene RPS6KA6
- test settings: concentration: 1 μM, replicates: in singlicate; n = 1

Entry Cl.Cl.NC(CNC(=O)c1cc(Br)c(-c2ccnc3[nH]ccc23)s1)c1ccccc1 (centres unmarked) [GSK1322949] : reported %Inh = ? 0%

Look up %Inh for this compound: CS(=O)(=O)c1cccc(CNc2nc(Nc3ccc4c(c3)CCC(=O)N4)ncc2C(F)(F)F)c1 85%

Dear colleague, I am looking for the recorded %Inh of the following compound: CCn1c(-c2nonc2N)nc2c(-c3ccccc3)ncc(OCCCN)c21.O=C(O)C(F)(F)F.O=C(O)C(F)(F)F [GSK260205] 67%

Form field: reported %Inh of Cc1ccc(Nc2ccnc(Nc3ccc(C)c(F)c3)n2)cc1O.Cl [GW582868] 0%

Quick one: %Inh of O=C(Nc1n[nH]c2nc(-c3ccccc3O)ccc12)C1CC1 [SB-711880] ? 51%

Dear colleague, I am looking for the recorded %Inh of the following compound: CN(c1ccc2c(c1)nc(NCc1ccccc1)n2C)c1ccnc(Nc2ccc(CS(C)(=O)=O)cc2)n1.Cl [GW811603] 0%

# get_value(readout='%Inh', item= CN(C)CCOc1ccc(-c2cc(-c3ccc(Cl)c(O)c3)c(-c3ccncc3)[nH]2)cc1.Cl.Cl [SB-684387] ) 0%

Find the recorded %Inh belonging to Cl.Cl.NCC(NC(=O)c1cc(-c2cccnc2)c(-c2ccnc3[nH]ccc23)s1)c1ccccc1 (centres unmarked) [GSK1323434] and report it. 0%
